assay: physchem; assay type: physicochemical; details: fassif, thermodynamic from solid, Solubility (S)
measurement.label: solubility at 6 h
Express the reported value numerically, then name its unit.

Dear colleague, I am looking for the recorded solubility at 6 h of the following compound: C/C=C/C[C@@H](C)[C@@H](O)[C@H]1C(=O)N[C@@H](CC)C(=O)N(C)[C@H](SCCN(C)C)C(=O)N(C)[C@@H](CC(C)(C)O)C(=O)N[C@@H](C(C)C)C(=O)N(C)[C@@H](CC(C)C)C(=O)N[C@@H](C)C(=O)N[C@H](C)C(=O)N(C)[C@@H](CC(C)C)C(=O)N(C)[C@@H](CC(C)C)C(=O)N(C)[C@@H](C(C)C)C(=O)N1C [Freebase Type A]
5600 µg/mL
